- protocol-details: Intraduodenal bioavailability of zanamivir from glycerol and PBS formulations, enhancer pre-dose (Example 6)
- assay-context: male, Sprague-Dawley, rat, in vivo, 1.5 mg/animal, Plasma concentration, ID 1.5 mg/animal, 50 µL PBS, 150 µL blank glycerol -2 hr; 1.5 hr; mean
readout-label: concentration at 1.5 hr (ng/mL)
Write the value in ng/mL as a bare number.

Please look at this compound and report its concentration at 1.5 hr: CC(=O)NC1C(NC(=N)N)C=C(C(=O)O)OC1C(O)C(O)CO (stereo not shown) [Zanamivir] 40.1

---

- protocol-details: Intravenous and intraduodenal bioavailability of zanamivir from three formulations (Example 5)
- assay-context: male, Sprague-Dawley, rat, in vivo, iv, 1.5 mg/animal, Plasma concentration, IV 1.5 mg/animal, Normal Saline, Ex.5; 1.5 hr; individual rats
readout-label: concentration at 1.5 hr (ng/mL)
Note: unit ng/mL is implicit; provide only the numeric part.

Hello, please tell me recorded concentration at 1.5 hr for this one: CC(=O)NC1C(NC(=N)N)C=C(C(=O)O)OC1C(O)C(O)CO (stereo not shown) 709
